The values you see were collected from patent US20180141989A1.

Biological target: T1, MBP-RAMP1 ECD-(GS)5-CLR ECD-H6 fusion protein (human, UniProt O60894 24-111; Q16602 29-144)
T1 construct: range 24-111;range 29-144; Tethered ECD fusion made in E. coli; used in the FP assay at 15 nM; also called MBP-hRAMP1.24-111-(Gly-Ser)5-hCLR.29-144-H6
T1 sequence (O60894 other isoform, or with tags, fused parts or gaps limits assumed, form in doubt): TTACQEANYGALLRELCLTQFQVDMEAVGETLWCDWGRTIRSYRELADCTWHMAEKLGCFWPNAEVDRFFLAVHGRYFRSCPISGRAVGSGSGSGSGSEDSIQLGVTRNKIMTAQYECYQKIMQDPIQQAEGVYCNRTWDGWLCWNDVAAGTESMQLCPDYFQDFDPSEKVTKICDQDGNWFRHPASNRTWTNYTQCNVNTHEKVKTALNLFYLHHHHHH
Assay: ratio of FP KI values at the two ECD complexes
Protocol: Fluorescence polarization peptide binding assay. […] The reactions (50 μL) were incubated for 2 hours at room temperature to reach equilibrium, and the anisotropy was measured in black half-area 96-well plates using a BMG LABTECH's POLARstar® Omega plate reader (Ortenberg, Germany). The reaction buffer was 50 mM HEPES, pH 7.5, 150 mM NaCl, 0.5 mg/ml fatty acid-free BSA, 0.5 mM EDTA, 0.5 mM maltose. […]
Where no end group is shown, it is not given here.
Exercise: state measured Receptor Selectivity (fold, over RAMP2-CLR ECD) for each of the binders provided.
Write the answer as a number in fold, unit excluded.

Q: Return reported Receptor Selectivity (fold, over RAMP2-CLR ECD); argument: DKDNVAPRWLISPWGF-NH2 [AM(37-52)NH2 [S45W, K46L, Q50W, Y52F]]
A: 2130

Q: Return reported Receptor Selectivity (fold, over RAMP2-CLR ECD); argument: DKDNVAPRSLISPWGY-NH2 [AM(37-52)NH2 [K46L, Q50W]]
A: 23

Q: Return reported Receptor Selectivity (fold, over RAMP2-CLR ECD); argument: DKFNVAPRSLISPWGY-NH2 [AM(37-52)NH2 [D39F, K46L, Q50W]]
A: 22

Q: Return reported Receptor Selectivity (fold, over RAMP2-CLR ECD); argument: DKDNVAPRWMISPWGF-NH2 [AM(37-52)NH2 [S45W, K46M, Q50W, Y52F]]
A: 977
